FYI, the data here is from patent EP4671273A1.

- target_or_system: T1, rhIL-21-His (AB235875-1001, Abcam) (human, UniProt Q9HBE4 30-162)
- T1 construct: bought; not shown: His tag, length and position not described
- T1 sequence (Q9HBE4 30-162 limits assumed): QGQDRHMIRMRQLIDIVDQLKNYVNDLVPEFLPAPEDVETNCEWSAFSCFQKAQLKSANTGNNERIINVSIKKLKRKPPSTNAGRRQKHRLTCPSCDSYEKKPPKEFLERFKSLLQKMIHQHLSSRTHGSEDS
- method_summary: SPR, Fab on captured rhIL-21-His
We use 0.0001 s⁻¹ as the dividing line for koff: on or above the line is rule met, below is rule not met.

binder	qualitative_label
ZAP122 Fab (Fab, V domains shown, Fab; also called ZAP122 wt) VH: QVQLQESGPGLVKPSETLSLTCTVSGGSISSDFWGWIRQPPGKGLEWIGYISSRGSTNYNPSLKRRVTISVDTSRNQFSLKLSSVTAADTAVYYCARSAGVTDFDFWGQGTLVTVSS VL: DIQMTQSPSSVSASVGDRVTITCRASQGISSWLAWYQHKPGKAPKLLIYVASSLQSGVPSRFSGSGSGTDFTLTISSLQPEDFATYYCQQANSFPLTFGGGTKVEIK	rule not met
EJT070 Fab (Fab, V domains shown, Fab) VH: QVQLQESGPGLVKPSETLSLTCTVSGGSISSDYWGWIRQPPGKGLEWIGYISYSGSTNYNPSLKSRVTISVDTSRNQFSLKLSSVTAADTAVYYCARSAGVADFDFWGQGTLVTVSS VL: DIQLTQSPSSVSASVGDRVTITCRASQGISSWLAWYQHKPGKAPKLLIYVASSLQSGVPSRFSGSGSGTDFTLTISSLQPEDFATYYCQQASSFPLTFGGGTKVEIK	rule met
PAI969 Fab (Fab, V domains shown, Fab) VH: QVQLQESGPGLVKPSETLSLTCTVSGGSISSDYWGWIRQPPGKGLEWIGYISSSGSTNYNPSLKSRVTISVDTSRNQFSLKLSSVTAADTAVYYCARSAGVADFDAWGQGTLVTVSS VL: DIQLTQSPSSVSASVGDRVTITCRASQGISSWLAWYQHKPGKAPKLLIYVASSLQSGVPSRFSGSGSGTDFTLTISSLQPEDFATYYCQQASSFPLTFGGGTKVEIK	rule met
UER756 Fab (Fab, V domains shown, Fab) VH: QVQLQESGPGLVKPSETLSLTCTVSGGSISSDYWGWIRQPPGKGLEWIGYISSSGSTNYNPSLKSRVTISVDTSRNQFSLKLSSVTAADTAVYYCARSAGVTDFDAWGQGTLVTVSS VL: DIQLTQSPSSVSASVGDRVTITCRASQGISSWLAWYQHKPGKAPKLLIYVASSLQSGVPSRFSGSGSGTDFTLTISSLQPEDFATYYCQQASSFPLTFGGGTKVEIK	rule met
